- System: CAKI-1 renal
- assay_details: NCI tumour cell line growth inhibition, 48 h
readout_label: log10(TGI) (log10 of the value in µM)
In plain terms, each number is the log10 of measured TGI in µM.

Consider the following illustrative entries.
COc1cccc(C2NC(=S)NC(C)=C2C(=O)Nc2ccc(Cl)c(Cl)c2)c1 (stereo unspecified)
1.34
O=C1C=CC(=O)c2c(Cl)ccc(O)c21
1.21
O=C(c1ccc(Cl)cc1)C1OC12C(=O)Nc1ccccc12 (stereo unspecified)
1.31

Query: Reported log10(TGI) for CCOc1cc(-c2ccc[nH]2)[nH]c1/C=C1\N=C(C)C(C(=O)OC)=C1C : what is it?
Reply: -0.71

Query: Another compound to check: CC1COCC(C)N1C1=C(Cl)C(=O)c2ccccc2C1=O (stereo unspecified)
Reply: 0.47

Query: Another compound to check: CCSC(SCC)=C1C(=O)N(c2ccccc2)N=C1C
Reply: 1.20

Query: Another compound to check: OCNCCNc1nc2ccccc2c2[nH]c3ccccc3c12
Reply: 0.87

Query: Another compound to check: C=[CH][Sn]([CH]=C)([O]c1cccc2cccnc12)[O]c1cccc2cccnc12
Reply: 1.36

Query: Another compound to check: Cc1cc(Cl)ccc1NS(=O)(=O)c1ccc(-c2cnc(C3CC3)o2)cc1
Reply: 1.25

Query: Another compound to check: CC(=O)O[C@H]1CC[C@@]2(C)[C@H](CC[C@@H]3[C@@H]2CC[C@]2(C)[C@@H](c4ccc(=O)oc4)C[C@H]4O[C@]342)C1
Reply: 0.12

Query: Another compound to check: Nc1ccc2c(c1)c(N)nn2C(=O)Nc1ccc(Cc2ccccc2)cc1
Reply: 1.43

Query: Another compound to check: CO[C@]1(CN2CCN3CCCC[C@@H]3C2)/C=C/C[C@H](C)[C@@H](C)S(=O)(=O)NC(=O)c2ccc3c(c2)N(C[C@@H]2CC[C@H]21)C[C@@]1(CCCc2cc(Cl)ccc21)CO3
Reply: 0.63

* * *

- Test system: NCI/ADR-RES ovarian
- assay_details: NCI tumour cell line growth inhibition, 48 h
Overview of recorded TGI for various compounds
Number in µM, nothing else.

Consider the following illustrative entries.
Cc1ccc(C(C)C)cc1NC(=O)Nc1ccc([N+](=O)[O-])cc1
7.7
COC(=O)C1=C(O)C(C(=O)OC)[C@]2(O)[C@H](C(=O)OC)[C@H]1C[C@@H](c1ccc([N+](=O)[O-])cc1)[C@H]2C(=O)OC (stereo partly specified)
51.8
Nc1ccc2c(c1)c(N)nn2C(=O)Nc1ccc(Cc2ccccc2)cc1
75.1
N=C1C=C(N)C(=O)c2[nH]c(=O)ccc21
4.86
O=C(NCCCCCCCNC(=O)OCc1ccc2c(Cl)cc(Cl)c(O)c2n1)OCc1ccc2c(Cl)cc(Cl)c(O)c2n1
3.59
CCOc1cc(-c2ccc[nH]2)[nH]c1/C=C1\N=C(C)C(C(=O)OC)=C1C
1.47
CN1CCN(c2nc(-c3ccncc3)nc3sc4c(c23)CCCCCC4)CC1
24.5
Cc1cc(Cl)ccc1NS(=O)(=O)c1ccc(-c2cnc(C3CC3)o2)cc1
13

Let's switch to this compound now.
Query: # get_value(readout= TGI, system= NCI/ADR-RES ovarian) for CCC(CC(C)C)Nc1ccc(NC(CC)CC(C)C)cc1 (stereo unspecified)
Reply: 39.8
